Assay: Pharmacokinetics of released PEGylated protease inhibitor following P.O. administration of prodrugs in rats
Assay type: in vivo, male Sprague-Dawley rats
Design: unit not given here
Conditions: concentration at 24 hours; mPEG3-atazanavir in plasma after PO administration of mPEG3-ATV or of the listed prodrug, rats (n = 4-5)
readout-type: C24 Mean

• CCOC(=O)OC(CN(Cc1ccc(-c2ccccn2)cc1)NC(=O)C(NC(=O)OC)C(C)(C)C)C(Cc1ccccc1)NC(=O)C(NC(=O)OCCOCCOCCOC)C(C)(C)C (stereo not shown) [mPEG3-atazanavir ethyl carbonate, mPEG3-Atazanavir Ethyl Carbonate] = 1.42
• COCCOCCOCCOC(=O)N[C@H](C(=O)N[C@@H](Cc1ccccc1)[C@H](CN(Cc1ccc(-c2ccccn2)cc1)NC(=O)[C@@H](NC(=O)OC)C(C)(C)C)OC(=O)[C@H](Cc1ccccc1)NC(=O)[C@@H](N)CC(C)C)C(C)(C)C.Cl [Leu-Phe-mPEG3-Atazanavir, Leu-Phe-mPEG3-Atazanavir Hydrochloride] = 2.35
• CCCC(=O)O[C@@H](CN(Cc1ccc(-c2ccccn2)cc1)NC(=O)[C@@H](NC(=O)OC)C(C)(C)C)[C@H](Cc1ccccc1)NC(=O)[C@@H](NC(=O)OCCOCCOCCOC)C(C)(C)C [C3H7CO-mPEG3-ATV, mPEG3-Atazanavir Butyrate] = 0.00
• CCOCO[C@@H](CN(Cc1ccc(-c2ccccn2)cc1)NC(=O)[C@@H](NC(=O)OC)C(C)(C)C)[C@H](Cc1ccccc1)NC(=O)[C@@H](NC(=O)OCCOCCOCCOC)C(C)(C)C [mPEG3-Atazanavir-methyl ethyl ether, mPEG3-Atazanavir Methyl Ethyl Ether] = 1.20

---

Test: Pharmacokinetics of released PEGylated protease inhibitor following P.O. administration of prodrugs in rats
Type: in vivo, male Sprague-Dawley rats
Conditions: mPEG6-atazanavir in plasma after PO administration of mPEG6-ATV or of the listed prodrug, rats (n = 4-5)
readout-type: Cmax Mean

- COCCOCCOCCOCCOCCOCCOC(=O)N[C@H](C(=O)N[C@@H](Cc1ccccc1)[C@H](CN(Cc1ccc(-c2ccccn2)cc1)NC(=O)[C@@H](NC(=O)OC)C(C)(C)C)OC(=O)[C@H](Cc1ccccc1)NC(=O)[C@@H](N)CC(C)C)C(C)(C)C.Cl [Leu-Phe-mPEG6-ATV, Leu-Phe-mPEG6-Atazanavir Hydrochloride]: 37.2 ng/mL
- COCCOCCOCCOCCOCCOCCOC(=O)N[C@H](C(=O)N[C@@H](Cc1ccccc1)[C@H](CN(Cc1ccc(-c2ccccn2)cc1)NC(=O)[C@@H](NC(=O)OC)C(C)(C)C)OC(=O)[C@H](Cc1ccccc1)NC(=O)[C@@H](N)Cc1ccccc1)C(C)(C)C.Cl [Phe-Phe-mPEG6-ATV, Phe-Phe-mPEG6-Atazanavir Hydrochloride]: 27.0 ng/mL
- COCCOCCOCCOCCOCCOCCOC(=O)NC(C(=O)NC(Cc1ccccc1)C(CN(Cc1ccc(-c2ccccn2)cc1)NC(=O)C(NC(=O)OC)C(C)(C)C)OC(C)=O)C(C)(C)C (stereo not drawn) [Acetyl-mPEG6-Atazanavir, O-Acetyl-mPEG6-Atazanavir]: 10.3 ng/mL

---

Experiment: Pharmacokinetics of released PEGylated protease inhibitor following P.O. administration of prodrugs in rats
Type: in vivo, male Sprague-Dawley rats
Conditions: mPEG5-atazanavir in plasma after PO administration of mPEG5-ATV or of the listed prodrug, rats (n = 4-5)
Let's look at some compounds and their measured Cmax Mean.
readout-type: Cmax Mean (ng/mL)

• CCCCCC(=O)O[C@@H](CN(Cc1ccc(-c2ccccn2)cc1)NC(=O)[C@@H](NC(=O)OC)C(C)(C)C)[C@H](Cc1ccccc1)NC(=O)[C@@H](NC(=O)OCCOCCOCCOCCOCCOC)C(C)(C)C [C5H11CO-mPE5-ATV, C5H11CO-mPEG5-atazanavir] = 7.38
• COCCOCCOCCOCCOCCOC(=O)NC(C(=O)NC(Cc1ccccc1)C(CN(Cc1ccc(-c2ccccn2)cc1)NC(=O)C(NC(=O)OC)C(C)(C)C)OCOC)C(C)(C)C (centres unmarked) = 23.3
• COCCOCCOCCOCCOCCOC(=O)N[C@H](C(=O)N[C@@H](Cc1ccccc1)[C@H](CN(Cc1ccc(-c2ccccn2)cc1)NC(=O)[C@@H](NC(=O)OC)C(C)(C)C)OC(=O)[C@H](Cc1ccccc1)NC(=O)[C@@H](N)Cc1ccccc1)C(C)(C)C.Cl [Phe-Phe-mPEG5-Atazanavir HCl, Phe-Phe-mPEG5-atazanavir hydrochloride] = 12.9
• CCOC(C)OC(CN(Cc1ccc(-c2ccccn2)cc1)NC(=O)C(NC(=O)OC)C(C)(C)C)C(Cc1ccccc1)NC(=O)C(NC(=O)OCCOCCOCCOCCOCCOC)C(C)(C)C (mixture of isomers) = 109
• COCCOCCOCCOCCOCCOC(=O)N[C@H](C(=O)N[C@@H](Cc1ccccc1)[C@@H](O)CN(Cc1ccc(-c2ccccn2)cc1)NC(=O)[C@@H](NC(=O)OC)C(C)(C)C)C(C)(C)C = 57.6
• COCCOCCOCCOCCOCCOC(=O)NC(C(=O)NC(Cc1ccccc1)C(CN(Cc1ccc(-c2ccccn2)cc1)NC(=O)C(NC(=O)OC)C(C)(C)C)OC(=O)CNC(=O)C(N)CC(C)C)C(C)(C)C.Cl (stereo not drawn) [Leu-Gly-mPEG5-Atazanavir HCl, Leu-Gly-mPEG5-Atazanavir Hydrochloride] = 19.5
• CCCC(=O)OC(CN(Cc1ccc(-c2ccccn2)cc1)NC(=O)C(NC(=O)OC)C(C)(C)C)C(Cc1ccccc1)NC(=O)C(NC(=O)OCCOCCOCCOCCOCCOC)C(C)(C)C (centres unmarked) [C3H7CO-mPEG5-ATV, mPEG5-Atazanavir Butyrate] = 1.44
• CCOCO[C@@H](CN(Cc1ccc(-c2ccccn2)cc1)NC(=O)[C@@H](NC(=O)OC)C(C)(C)C)[C@H](Cc1ccccc1)NC(=O)[C@@H](NC(=O)OCCOCCOCCOCCOCCOC)C(C)(C)C = 95.1

---

Test: Pharmacokinetics of released PEGylated protease inhibitor following P.O. administration of prodrugs in rats
Format: in vivo, male Sprague-Dawley rats
Details: mPEG6-atazanavir in plasma after PO administration of mPEG6-ATV or of the listed prodrug, rats (n = 4-5)
Measured Cmax Mean of individual entries
readout-type: Cmax Mean (ng/mL)

* COCCOCCOCCOCCOCCOCCOC(=O)NC(C(=O)NC(Cc1ccccc1)C(CN(Cc1ccc(-c2ccccn2)cc1)NC(=O)C(NC(=O)OC)C(C)(C)C)OC(=O)C(CC(C)C)NC(=O)C(N)Cc1ccccc1)C(C)(C)C.Cl (stereo not drawn) [Phe-Leu-mPEG6-ATV, Phe-Leu-mPEG6-Atazanavir Hydrochloride] | 27.4
* CCOC(=O)OC(CN(Cc1ccc(-c2ccccn2)cc1)NC(=O)C(NC(=O)OC)C(C)(C)C)C(Cc1ccccc1)NC(=O)C(NC(=O)OCCOCCOCCOCCOCCOCCOC)C(C)(C)C (stereo not shown) [mPEG6-ATV-Ethyl Carbonate, mPEG6-Atazanavir Ethyl Carbonate] | 19.9
* CCOC(C)OC(CN(Cc1ccc(-c2ccccn2)cc1)NC(=O)C(NC(=O)OC)C(C)(C)C)C(Cc1ccccc1)NC(=O)C(NC(=O)OCCOCCOCCOCCOCCOCCOC)C(C)(C)C (mixture of isomers) | 28.8
* CCC(=O)O[C@@H](CN(Cc1ccc(-c2ccccn2)cc1)NC(=O)[C@@H](NC(=O)OC)C(C)(C)C)[C@H](Cc1ccccc1)NC(=O)[C@@H](NC(=O)OCCOCCOCCOCCOCCOCCOC)C(C)(C)C [C2H5CO-mPEG6-ATV, mPEG6-Atazanavir Propionate] | 1.86

---

Assay: Pharmacokinetics of released PEGylated protease inhibitor following P.O. administration of prodrugs in rats
Format: in vivo, male Sprague-Dawley rats
Settings: mPEG6-atazanavir in plasma after PO administration of mPEG6-ATV or of the listed prodrug, rats (n = 4-5)
Listed below: Tmax Median values for each entry.
readout-type: Tmax Median (h)

- CCCCCC(=O)O[C@@H](CN(Cc1ccc(-c2ccccn2)cc1)NC(=O)[C@@H](NC(=O)OC)C(C)(C)C)[C@H](Cc1ccccc1)NC(=O)[C@@H](NC(=O)OCCOCCOCCOCCOCCOCCOC)C(C)(C)C [C5H11CO-mPEG6-ATV, C5H11CO-mPEG6-atazanavir]: 0.500
- CCOC(=O)OC(CN(Cc1ccc(-c2ccccn2)cc1)NC(=O)C(NC(=O)OC)C(C)(C)C)C(Cc1ccccc1)NC(=O)C(NC(=O)OCCOCCOCCOCCOCCOCCOC)C(C)(C)C (stereo not shown) [mPEG6-ATV-Ethyl Carbonate, mPEG6-Atazanavir Ethyl Carbonate]: 1.50
- COCCOCCOCCOCCOCCOCCOC(=O)NC(C(=O)NC(Cc1ccccc1)C(CN(Cc1ccc(-c2ccccn2)cc1)NC(=O)C(NC(=O)OC)C(C)(C)C)OC(=O)COCCOC(=O)C(N)CC(C)C)C(C)(C)C.Cl (stereo not shown) [mPEG6-Atazanavir-CME-Leucine HCl, mPEG6-Atazanavir-CME-Leucine]: 1.50
- CCCCC(=O)OC(CN(Cc1ccc(-c2ccccn2)cc1)NC(=O)C(NC(=O)OC)C(C)(C)C)C(Cc1ccccc1)NC(=O)C(NC(=O)OCCOCCOCCOCCOCCOCCOC)C(C)(C)C (stereo not shown) [C4H9CO-mPEG6-ATV, C4H9CO-mPEG6-atazanavir]: 0.750
- COCCOCCOCCOCCOCCOCCOC(=O)N[C@H](C(=O)N[C@@H](Cc1ccccc1)[C@H](CN(Cc1ccc(-c2ccccn2)cc1)NC(=O)[C@@H](NC(=O)OC)C(C)(C)C)OC(=O)[C@H](Cc1ccccc1)NC(=O)[C@@H](N)Cc1ccccc1)C(C)(C)C.Cl [Phe-Phe-mPEG6-ATV, Phe-Phe-mPEG6-Atazanavir Hydrochloride]: 2.00
- COCCOCCOCCOCCOCCOCCOC(=O)NC(C(=O)NC(Cc1ccccc1)C(CN(Cc1ccc(-c2ccccn2)cc1)NC(=O)C(NC(=O)OC)C(C)(C)C)OC(=O)CNC(=O)C(N)C(C)C)C(C)(C)C.Cl (stereo not drawn) [Val-Gly-mPEG6-ATV, Val-GIy-mPEG6-Atazanavir Hydrochloride]: 7.00
- COCCOCCOCCOCCOCCOCCOC(=O)NC(C(=O)NC(Cc1ccccc1)C(CN(Cc1ccc(-c2ccccn2)cc1)NC(=O)C(NC(=O)OC)C(C)(C)C)OC(=O)C(N)CC(C)C)C(C)(C)C.Cl [mPEG6-Atazanavir-L-Leucine]: 0.500
